System: NCI-H69 and NCI-H69/LX-4
Experiment: Drug sensitivity of parental and drug resistant subline pair (resazurin)
Format: cell-based, human
Details: IC50 of resistant line divided by IC50 of parental line, 96 hr
Square brackets hold non-standard residues; d marks the D form. Peptide text beside a SMILES is read from it. Dolaproine = CO[C@@H]([C@@H]1CCCN1)[C@@H](C)C(=O)O; Dil = CC[C@H](C)[C@H](NC)[C@@H](CC(=O)O)OC; NMeV = CN[C@H](C(=O)O)C(C)C
PARAMETER MEASURED: Fold Resistance NCI-H69/LX4 / NCI-H69 (fold)
Kindly answer with a numeric value in fold, unit omitted.

Sample answers from the record:
COc1cccc2c1C(=O)c1c(O)c3c(c(O)c1C2=O)C[C@@](O)(C(=O)CO)C[C@@H]3O[C@H]1C[C@H](N)[C@H](O)[C@H](C)O1 [Doxorubicin] : 103
N.N.[Cl][Pt][Cl] [Cisplatin] : 4.7
CC[C@]1(O)C[C@H]2CN(CCc3c([nH]c4ccccc34)[C@@](C(=O)OC)(c3cc4c(cc3OC)N(C=O)[C@H]3[C@@](O)(C(=O)OC)[C@H](OC(C)=O)[C@]5(CC)C=CCN6CC[C@]43[C@@H]65)C2)C1 [Vincristine] : 56888

Notebook entry, NCI-H69 and NCI-H69/LX-4 assay: Fold Resistance NCI-H69/LX4 / NCI-H69 of CC[C@H](C)[C@@H]([C@@H](CC(=O)N1CCC[C@H]1[C@H](OC)[C@@H](C)C(=O)N[C@@H](Cc1ccccc1)C(=O)O)OC)N(C)C(=O)[C@@H](NC(=O)[C@@H](NC)C(C)C)C(C)C [MMAF] (H-[NMeV]V[Dil][Dolaproine]F-OH) = ?
4

---

System: HCT-15 (colon carcinoma) cells
Experiment: Alteration of drug potency by verapamil, free drugs
Type: cell-based
Conditions: Homo sapiens, read-out: IC50 +10 μM Verapamil; HCT-15, verapamil 4 hr before drug, 96 hr, resazurin
PARAMETER MEASURED: pIC50
Units for pIC50: none; it is -log10 of a concentration expressed in mol/L.

Notebook entry, HCT-15 (colon carcinoma) cells assay: pIC50 of COc1cccc2c1C(=O)c1c(O)c3c(c(O)c1C2=O)C[C@@](O)(C(=O)CO)C[C@@H]3O[C@H]1C[C@H](N)[C@H](O)[C@H](C)O1 [Doxorubicin] = ?
7.21
